Tested on: INSRR;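 note: KINOMEscan kinase panel screen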
measurement_setup: concentration: 1 μM, replicates: in singlicate; n = 1
measurement_label: %Inh
Please give the number followed by its unit.

Example entries and their recorded answers appear below.
| smiles_representation | assayed_target | %Inh |
| --- | --- | --- |
| COc1cc2nccc(Nc3ccc(NC(=O)c4ccc(C)cc4)c(O)c3)c2cc1OC.Cl | INSRR | 0% |
| Cc1cccc(-c2nc(C)cc(Nc3ccncc3)n2)n1 | INSRR | 0% |
| CC(C)(C)c1ccc(C(=O)Nc2cn3cc(Cl)ccc3n2)cc1 | INSRR | 0% |
| Cn1cncc1-c1ccc2ncnc(Nc3ccc(OCc4ccccc4)cc3)c2c1 | INSRR | 22% |
| Cc1cccc(-c2nc(Nc3ccc4[nH]ncc4c3)c3ccccc3n2)n1 | INSRR | 0% |
| Fc1cc(Cl)ccc1Nc1ccnc2cc(-c3ccc(CN4CCCCC4)o3)ccc12 | INSRR | 0% |
| O=C(Nc1ccccc1)Nc1cccc(Oc2ccc3nccn3n2)c1 | INSRR | 0% |
| Cc1cccc(-c2nc(-c3ccc(S(C)(=O)=O)cc3)sc2-c2ccnc(NCCc3ccccc3)c2)c1 | INSRR | 3% |

Lookup: # input compound: CCn1c(-c2cccnc2O)nc2cnccc21 ; wanted: its %Inh
Found: 0%
